# Test system: RPMI-8226 leukemia
# assay_remarks: NCI-60 one-dose screen, 48 h (100 = growth as untreated, 0 = no growth, -100 = all killed)
# condition: 10 µM
The panel holds about 83,000 compounds, 20% with a hit somewhere; the sample as a whole holds those more often. Activity calls are given as the source filed them. How the source made its calls: active means growth percent below 10; inactive means the rest.
recorded_metric: growth

As a guide, the following entries are already answered.
> print(dat)
                                   compound  recorded.metric    recorded.value
1          CCOC(=O)c1ccc(NC(=O)Nc2nncs2)cc1           growth    6.49% (active)
2      COc1ccc(C2=Cc3ccc(OC(C)=O)cc3OC2)cc1           growth  83.4% (inactive)
3     Cc1nc2sccn2c1-c1csc(Nc2cccc(Cl)c2C)n1           growth    45% (inactive)
4   Clc1cc(Cl)c(Cl)c(-c2nc(-c3cccnc3)cs2)c1           growth    40% (inactive)
5  O=C(Cn1ccc(=O)[nH]c1=O)c1ccc([N+](=O)[O-])o1           growth  65.5% (inactive)

Ask: # query: growth of entry `O=C(C=P(c1ccccc1)(c1ccccc1)c1ccccc1)c1ccc(Br)cc1`
Reply: 47.4% (inactive)

Ask: Repeat with `O=C1/C(=C/c2ccc(O)cc2)Oc2ccc(Cl)cc21`
Reply: 119% (inactive)

Ask: Repeat with `CC1(C)CC(=O)c2c(nc3ccc(Cl)cc3c2-c2ccccc2)C1`
Reply: 27.5% (inactive)

Ask: Repeat with `Cc1cc(C(C)(C)CC(C)(C)C)ccc1OCCOCC[N+](C)(C)Cc1ccccc1`
Reply: -20% (active)

Ask: Repeat with `FC(F)(F)c1ccc(-c2cnc(Br)nc2NC2CCCCCC2)cc1`
Reply: -4.63% (active)

Ask: Repeat with COc1cc(C2C=C(c3ccc(Cl)cc3)N=C3SC(C)=CN32)cc(OC)c1OC (stereo unspecified)
Reply: 47.5% (inactive)

* * *

# Tested on: SNB-19 CNS
# assay_remarks: NCI-60 one-dose screen, 48 h (100 = growth as untreated, 0 = no growth, -100 = all killed)
# condition: 10 µM
Compounds without any hit were thinned out: in the full panel of roughly 83,000, 20% have a hit. Activity calls are given as the source filed them. Rule for the calls: active = growth percent below 10; inactive = the rest.
Each entry below lists one item and its recorded growth value.

Ask: # query: growth of entry `COc1ccc(Nc2ccnc(N3CCN(c4ccnc5cc(Cl)ccc45)CC3)n2)cc1`
Reply: 28.7% (inactive)

* * *

# Test system: NCI-H460 lung
# assay_remarks: NCI-60 one-dose screen, 48 h
# condition: 10 µM
# Method: Growth inhibition of the NCI-H460 human Non-Small Cell Lung tumor cell line is measured as a screen for anti-cancer activity. Cells are grown in 96 well plates and exposed to the test compound for 48 hours. Compounds are tested at a single concentration, which is 10^-5 M for most compounds. The reported endpoint is percent growth (GI% or GIPRCNT), where numbers from 0 - 100% represent growth inhibition, and numbers from -100% - 0 represent cell death. […]
The panel holds about 83,000 compounds, 20% with a hit somewhere; the sample as a whole holds those more often. Activity calls are given as the source filed them. How the source made its calls: active means growth percent below 10; inactive means the rest.
Form entry, call: pick from Y for active, N for inactive

> print(dat)
                                   molecule  answer.label
1                 CCCCCCCCCCCC(=O)NCCCN(C)C             N
2  COc1cc(NS(C)(=O)=O)ccc1Nc1c2ccc(Cl)cc2nc2c(OC)cccc12             Y
3        c1ccc(C2CCCCC2)c(OCCCCCN2CCNCC2)c1             Y
4      S=c1c2ncccc2c(-c2ccccn2)nn1Cc1ccccn1             N

Ask: Please state the recorded outcome for this molecule: `Cc1cccc2c1O/C(=C\c1ncc([N+](=O)[O-])n1C)C2=O`
Reply: Y

Ask: Repeat with `CCN1CCN(c2nc(NNC(=O)c3cccc(OC)c3)nc(N3CCN(C(c4ccccc4)c4ccccc4)CC3)n2)CC1`
Reply: Y

Ask: Repeat with `CC1(C)CC(=O)c2c(nc3ccc(Cl)cc3c2-c2ccccc2)C1`
Reply: N

Ask: Repeat with `O=NN(CCCl)C(=O)NCc1ccc(-c2ccc(CNC(=O)N(CCCl)N=O)cc2)cc1`
Reply: N

Ask: Repeat with `COc1cc(/C=C/C(=O)c2cc(-c3ccccc3)ccc2O)cc(OC)c1OC`
Reply: N

Ask: Repeat with `CC(C)OCc1cc(CN2CCN(c3cccc(Cl)c3)CC2)c(O)c2ncccc12`
Reply: Y

Ask: Repeat with `FC(F)(F)c1ccc(-c2cnc(Br)nc2NC2CCCCCC2)cc1`
Reply: N

Ask: Repeat with `CCOC(=S)Sc1ccc([N+](=O)[O-])cc1[N+](=O)[O-]`
Reply: N

Ask: Repeat with CN1/C(=C\C(I)C(I)C2=[N+](C)c3ccccc3C2(C)C)C(C)(C)c2ccccc21 (configuration not stated)
Reply: Y

Ask: Repeat with COc1ccc(C2CC(c3ccc(-c4ccccc4)cc3)=NN2c2ccc(S(N)(=O)=O)cc2)cc1 (configuration not stated)
Reply: N

Ask: Repeat with `COc1c(C)c(C)c(OC)c2c1[nH]c(=O)c1c3cccnc3cn21`
Reply: N

Ask: Repeat with `Cc1nn2c(/C=C3/C(=O)Nc4ccc(Cl)cc43)c(-c3ccccc3)nc2s1`
Reply: N

Ask: Repeat with `O=c1oc2cc(OS(=O)(=O)C3CC3)ccc2c2c1CCCCCC2`
Reply: N

Ask: Repeat with COC(=O)C1(C(=O)OC)C2C(=O)C3C(C21)C3(C(=O)OC(C)(C)C)C(=O)OC(C)(C)C (configuration not stated)
Reply: N

Ask: Repeat with `C=CCN1C(=O)/C(=C\c2ccc3c(c2)CCC3)SC1=S`
Reply: N

Ask: Repeat with `COc1ccccc1Cn1cc2c(c1-c1ccccc1)CCc1cnoc1-2`
Reply: N

Ask: Repeat with `O=C(COc1ccc(Cl)cc1Cl)Oc1coc(CSc2nc3ccccc3s2)cc1=O`
Reply: N

Ask: Repeat with `CC1(C)CCc2cc(-c3ccn(S(=O)(=O)c4ccc(Cl)cc4)n3)ccc2O1`
Reply: N

* * *

# Tested on: HOP-92 NSCLC
# assay_remarks: NCI-60 one-dose screen, 48 h (100 = growth as untreated, 0 = no growth, -100 = all killed)
# condition: 10 µM
This is part of a sample that, as a whole, favours compounds with a hit. Of some 83,000 tested, about 20% had one in any assay.
Class key for growth values: low value = under 10%, medium value = from 10% up to 60%, high value = 60% and over

> print(dat)
                                   compound  answer.label
1  CCN(CC)CCn1c(=N)n(CC(O)c2ccc(Cl)c(Cl)c2)c2ccccc21 (centres undefined)  medium value

Ask: # classify by growth band: `C=CCNC(=S)NN`
Reply: high value

Ask: Repeat with `O=C(N/N=C\c1cc(Cl)ccc1O)c1ccncc1`
Reply: medium value

Ask: Repeat with `C=CCn1c(C)nc2cc(Nc3nc(Nc4ccc5nc(C)n(CC=C)c5c4)c4ccccc4n3)ccc21`
Reply: low value

Ask: Repeat with COc1cc(C(c2c[nH]c3ccccc23)N2CCCC2)ccc1OCc1ccccc1 (centres undefined)
Reply: medium value

Ask: Repeat with `COc1cccc2c1O/C(=C\c1ccc([N+](=O)[O-])s1)C2=O`
Reply: medium value

Ask: Repeat with `N=C(N)c1ccc(-c2ccc(-c3ccccc3)s2)s1`
Reply: low value

Ask: Repeat with `COc1ccc(-c2[nH]ncc2-c2cc(OC)c(OC)c(OC)c2)cc1`
Reply: low value

Ask: Repeat with `O=C(NCCc1nccs1)c1cnc2c(S)cccc2c1`
Reply: medium value

Ask: Repeat with `COc1cc(C)c2sc3ccccc3c(=O)c2c1NCCN(C)C`
Reply: medium value

Ask: Repeat with CC1=CSC2=NC(c3ccc(Cl)c(Cl)c3)=CC(c3ccc(Cl)cc3)N12 (centres undefined)
Reply: low value

Ask: Repeat with `CCN(CC)CCCOC(=O)Nc1ccccc1Cl`
Reply: high value

Ask: Repeat with `COc1ccc(C(=O)/C=C/c2cc(-c3ccc4c(c3)OCO4)n[nH]2)cc1OC`
Reply: medium value

Ask: Repeat with CC(C)C(C)C(N)C(=O)O (centres undefined)
Reply: high value

Ask: Repeat with `COc1ccc(Nc2ccnc(N3CCN(c4ccnc5cc(Cl)ccc45)CC3)n2)cc1`
Reply: low value

Ask: Repeat with `CNCCCNCCCN1C(=O)c2ccc3c4c(ccc(c24)C1=O)C(=O)N(CCCNCc1ccccc1OC)C3=O`
Reply: low value

Ask: Repeat with COc1ccc(C2=NNC(c3sc(Cl)nc3Cl)C2)cc1 (centres undefined)
Reply: high value

* * *

# System: SF-539 CNS
# assay_remarks: NCI-60 one-dose screen, 48 h (100 = growth as untreated, 0 = no growth, -100 = all killed)
# condition: 10 µM
This is part of a sample that, as a whole, favours compounds with a hit. Of some 83,000 tested, about 20% had one in any assay.
recorded_metric: growth (%)
Respond numerically; units are % and should not be typed.

> print(dat)
                                   molecule  recorded.value
1       CCN1CCOC1C(C)C (stereo unspecified)              95
2  Cc1cc(=O)oc2cc(OCc3cn(CC(O)CO)nn3)ccc12 (stereo unspecified)            95.9

Ask: Lookup: growth / SF-539 CNS / `Cc1ncc([N+](=O)[O-])n1CCOc1ccc(C(=O)/C=C/c2ccc(C(F)(F)F)cc2)cc1`
Reply: 57.5

Ask: Repeat with `O=C1/C(=C/c2ccc([N+](=O)[O-])s2)Oc2ccc(Cl)cc21`
Reply: -91.3

Ask: Repeat with OC(CNC1CCCC1)Cn1c2ccccc2c2ccccc21 (stereo unspecified)
Reply: -69.9

Ask: Repeat with `CCOC(=O)c1cc(-c2ccccc2)nc(N)n1`
Reply: 94.5

Ask: Repeat with `Cc1cccc2c(Nc3ccc(NS(C)(=O)=O)cc3)c3ccc([N+](=O)[O-])cc3nc12`
Reply: 16.8

Ask: Repeat with `CCCCCCCCCCCCCCCC(=O)N1CCN(C)CC1`
Reply: 73.9

Ask: Repeat with `CCCCC(CC#N)(CCC)CCC`
Reply: 100

Ask: Repeat with `CCOC(=O)c1cc2c(n1Cc1cc(OC)cc(OC)c1)-c1oncc1CC2`
Reply: -7.41

Ask: Repeat with COc1cc(C2C=C(c3ccc(Cl)cc3)N=C3SC(C)=CN32)cc(OC)c1OC (stereo unspecified)
Reply: 99.1
